test system: CCRF-CEM leukemia; assay: NCI tumour cell line growth inhibition, 48 h
metricName: TGI

compound="COc1ccc(OC)c(C2SCC(=O)N2NC(=O)C(O)c2ccccc2)c1 (stereo unspecified)" valueobserved="> 100 µM"
compound="O=C(Cc1ccccc1)NN1C(=O)C(Cl)C1c1ccccc1O (stereo unspecified)" valueobserved="> 100 µM"
compound=CC(=O)Oc1ccccc1C(=O)/C=C/c1cccc([N+](=O)[O-])c1 valueobserved="> 100 µM"
compound="c1ccc2c3c([nH]c2c1)C1CCCN1CC3 (stereo unspecified)" valueobserved="> 10 µM"
compound="CCOP(=O)(OCC)C(C)(CC)NC (stereo unspecified)" valueobserved="77.1 µM"
compound="C/C(=C/CC[C@]1(CO)CC[C@]2(CO)[C@H](CC[C@@H]3[C@@]4(C)CC[C@H](OC5OCC(O)C(O)C5OC5OC(CO)C(O)C(O)C5O)C(C)(C)[C@@H]4CC[C@]32C)[C@H]1O)CO (stereo partly specified)" valueobserved="> 100 µM"

* * *

system: OVCAR-5 ovarian; experiment: NCI tumour cell line growth inhibition, 48 h; in the data active = GI50 below about 0.43 µM; inactive = the rest
Classes used: active, inactive

molecule=O=C(Oc1cccnc1)c1ccsc1Nc1ccnc(C(F)(F)F)c1 discretelabel=inactive
molecule="CC1OC(O[C@H]2/C=C/C=C/C=C/C=C/C=C/C=C/C=C/[C@H](C)[C@@H](O)[C@@H](C)[C@H](C)OC(=O)CC(O)CC(O)CCC(O)C(O)CC(O)C[C@]3(O)C[C@H](O)C(C(=O)O)C(C2)O3)C(O)[C@H](N)C1O (stereo partly specified)" discretelabel=inactive
molecule="COc1ccc2cc(-c3c(-c4ccncc4)nc(-c4ccc(S(C)=O)cc4)n3C)ccc2c1 (stereo unspecified)" discretelabel=inactive
molecule="COc1ccc2c(c1OC)C(=O)OC2C1c2c(c([N+](=O)[O-])c3c(c2OC)OCO3)CCN1C (stereo unspecified)" discretelabel=inactive
molecule="O=c1[nH]cnc2c(C3NC(CO)C(O)C3O)c[nH]c12 (stereo unspecified)" discretelabel=inactive
molecule="C[C@@H]1O[C@@H](O[C@H]2CC[C@@]3(C)[C@H](CCC4[C@@H]3C(O)C[C@]3(C)[C@@H](c5ccc(=O)oc5)CC[C@]43O)C2)[C@H](O)[C@H](O)[C@H]1O (stereo partly specified)" discretelabel=active

* * *

tested on: TK-10 renal; assay: NCI tumour cell line growth inhibition, 48 h
Each item that follows carries a reported TGI.
metricName: TGI (µM)

itemsmiles=CCCc1ccc(NCc2cc(OC)c(OC)c(OC)c2)cc1 subjectoftest="TK-10 renal" resultunit=µM relationoperator=> valueobserved=100
itemsmiles=N#C/C(=C\c1c[nH]c2ccccc12)C(=O)c1ccc(O)c(O)c1 subjectoftest="TK-10 renal" resultunit=µM relationoperator== valueobserved=98.2
itemsmiles=CN(CC(N)=O)C(=O)N(CCCl)N=O subjectoftest="TK-10 renal" resultunit=µM relationoperator=> valueobserved=100
itemsmiles=CC(C)=C/C=C1/CS(=O)(=O)C=C1C subjectoftest="TK-10 renal" resultunit=µM relationoperator=> valueobserved=100
itemsmiles=COc1ccc(C(Cl)=C(c2ccc(OCCN(C)C)cc2)c2ccc(OCCN(C)C)cc2)cc1 subjectoftest="TK-10 renal" resultunit=µM relationoperator== valueobserved=31.1
itemsmiles=Cc1cc(O)c(C(C)C)cc1C1(c2cc(C(C)C)c(O)cc2C)OC(=O)c2ccccc21 subjectoftest="TK-10 renal" resultunit=µM relationoperator== valueobserved=11.1

* * *

test system: SNB-75 CNS; test: NCI tumour cell line growth inhibition, 48 h; in the data active = GI50 below about 0.43 µM; inactive = the rest
Outcomes: 1.0 (active), 0.0 (inactive)

compound=O=C([CH-]C(=O)c1ccccc1)c1ccccc1.O=C([CH-]C(=O)c1ccccc1)c1ccccc1.[OH-].[OH-].[Ti+4] discretelabel=0.0
compound=Cc1c(C2=C(c3cn(C)c4ccccc34)C(=O)NC2=O)c2ccccc2n1C discretelabel=0.0
compound=CCCCCn1sc(=O)n(Cc2ccc(CNC(=O)OCc3ccc4cccc(O)c4n3)cc2)c1=O discretelabel=0.0
compound="COc1cc2c(c(OC)c1OC)-c1ccc(SC)c(=O)cc1[C@@H](NC1OC(CO)C(O)C(O)C1O)CC2 (some centres undefined)" discretelabel=1.0
compound=N#Cc1ccc(N=Cc2c([O-])ccc3ccccc23)cc1.[C-]#[O+].[C-]#[O+].[Ir] discretelabel=0.0
compound="COc1ccc2c(c1)OC1=C(C(=O)OC1)C2c1cc(OC)c2c(c1)OCO2 (centres undefined)" discretelabel=1.0
compound="CN1CCN(CC(O)COc2c(Br)c(Br)c(Br)c3c2OC(C)(C)C3)CC1 (centres undefined)" discretelabel=0.0
compound=COc1cc(/C=C/[N+](=O)[O-])cc(Br)c1OC discretelabel=0.0
compound=CC(C)(C)c1ccc(C(=O)Nc2sc3c(c2C(N)=O)CCC(=O)C3)cc1 discretelabel=0.0

* * *

Each entry below carries its reported TGI.
tested on: MALME-3M melanoma; assay: NCI tumour cell line growth inhibition, 48 h
metricName: TGI

compound=CN(C)c1ccc(/C=C2\C=Cc3ccccc32)cc1 metricname=TGI valueobserved="> 100 µM"
compound="OC(c1ccc(-c2ccccc2)cc1)C(F)(F)c1nc2ccccc2o1 (stereo unspecified)" metricname=TGI valueobserved="> 100 µM"
compound=COc1ccc(C(=O)N2c3ccccc3Sc3ccccc32)c(OC)c1 metricname=TGI valueobserved="> 100 µM"
compound=O=C1NC(=S)N(c2ccccc2)C1=O metricname=TGI valueobserved="> 100 µM"
compound="COc1ccc2cc(-c3c(-c4ccncc4)nc(-c4ccc(S(C)=O)cc4)n3C)ccc2c1 (stereo unspecified)" metricname=TGI valueobserved="> 25 µM"
compound="CN(C)CC1CCCC1=O (stereo unspecified)" metricname=TGI valueobserved="2.57 µM"
compound="CCOC(=O)CSc1nnc(C(Sc2nc(-c3ccccc3)c(-c3ccccc3)[nH]2)C(C)C)n1-c1ccccc1 (stereo unspecified)" metricname=TGI valueobserved="28.3 µM"
compound=N#C/C(=C\c1c[nH]c2ccccc12)C(=O)c1ccc(O)c(O)c1 metricname=TGI valueobserved="> 78.8 µM"
compound=CSC(=S)N/N=C(\C)c1cccc(C)n1 metricname=TGI valueobserved="10 µM"
compound=CC(C)=C/C=C1/CS(=O)(=O)C=C1C metricname=TGI valueobserved="> 100 µM"
compound=COc1cc([C@@H]2c3cc(O)c(OC)cc3C=C(C(N)=O)[C@H]2C(N)=O)ccc1O metricname=TGI valueobserved="> 100 µM"

* * *

The molecules listed here are annotated with their TGI.
tested on: UO-31 renal; test: NCI tumour cell line growth inhibition, 48 h
metricName: TGI

molecule="C=CCOC(=O)C1C2OC3(C(C(=O)OC)=C2C(=O)OC)c2ccccc2CCC13 (stereo not given)" metricname=TGI valueobserved="> 10 µM"
molecule="C/C(=C/CC[C@]1(CO)CC[C@]2(CO)[C@H](CC[C@@H]3[C@@]4(C)CC[C@H](OC5OCC(O)C(O)C5OC5OC(CO)C(O)C(O)C5O)C(C)(C)[C@@H]4CC[C@]32C)[C@H]1O)CO (stereo not given in full)" metricname=TGI valueobserved="> 100 µM"
molecule=CSC(=S)N/N=C(\C)c1cccc(C)n1 metricname=TGI valueobserved="13.2 µM"
molecule=CCO/C=C1\N=C(c2ccccc2Br)OC1=O metricname=TGI valueobserved="> 100 µM"
molecule=CNS(=O)(=O)NNS(=O)(=O)c1ccc(Cl)cc1 metricname=TGI valueobserved="> 100 µM"

* * *

tested on: MALME-3M melanoma; assay: NCI tumour cell line growth inhibition, 48 h
Quick reference for TGI among some molecules
metricName: TGI (µM)

molecule=c1ccc(CSCCc2ccncc2)cc1 relationoperator=> valueobserved=100
molecule=COC(=O)c1c(OC(C)=O)ccc2c1c1c(OC(C)=O)c3ccccc3c(OC(C)=O)c1n2Cc1ccccc1 relationoperator== valueobserved=22.6
molecule="CC(=O)OCC1OC(n2c(=O)[nH]c(=O)c3sccc32)C(Br)C1OC(C)=O (stereo not given)" relationoperator=> valueobserved=100
molecule=CCCCn1c(=O)c2c(nc3n2CCCN3CCc2ccc(OCC(=O)NCCN(CC)CC)cc2)n(CCCC)c1=O relationoperator== valueobserved=1.98
molecule=CN1CCN(Cc2ccc(NC(=O)c3[nH]ncc3Nc3ncnc4sc5c(c34)CCCC5)cc2)CC1 relationoperator== valueobserved=2.82

* * *

test system: SF-295 CNS; test: NCI tumour cell line growth inhibition, 48 h
In this section, each of the compounds is paired with its reported TGI.
metricName: TGI

compound=N#Cc1ccc(N=Cc2c([O-])ccc3ccccc23)cc1.[C-]#[O+].[C-]#[O+].[Ir] valueobserved="35.7 µM"
compound=C[CH2][Pb]([CH2]C)([CH2]C)[O]C(=O)c1ccc2ccccc2n1 valueobserved="> 10 µM"
compound=CC(C)(C)CN1CCn2c(nc3c(N)nccc32)S1 valueobserved="> 100 µM"
compound=COC(=O)C1=C(C)N2[C@H](C(=O)O)CO[C@@]2(C)[C@H](C(=O)OC)[C@H]1c1cccc([N+](=O)[O-])c1 valueobserved="> 100 µM"
compound=COc1ccc(/C=N/NC(=O)Cn2c(-c3ccc(S(C)(=O)=O)cc3)nc3cc(Cl)ccc32)cc1 valueobserved="> 50 µM"
compound=O=C(/C=C/c1csc(-c2ccccc2)n1)NCc1ccc(C(=O)NCc2ccccc2)cc1 valueobserved="> 100 µM"
compound="CC1(O)OC(=O)C2=C1CCC1C2CCC2(C)C(O)CCC12 (centres undefined)" valueobserved="> 100 µM"
compound=C[C@@H]1O[C@@H](OC[C@H]2O[C@@H](OCCc3ccc(O)c(O)c3)[C@H](O)[C@@H](O)[C@@H]2OC(=O)/C=C/c2ccc(O)c(O)c2)[C@H](O)[C@H](O)[C@H]1O valueobserved="> 100 µM"
compound="CN1CCN(CC(O)COc2c(Br)c(Br)c(Br)c3c2OC(C)(C)C3)CC1 (centres undefined)" valueobserved="3.77 µM"
